assay: Chemical stability test in human plasma (enzymatic hydrolysis, HPLC-MS/MS); format: in vitro ADME; conditions: human plasma spiked with isomers mixture; LEDAall matrix (Table S4)
Property: LEDAall k ± 2SD (degradation rate); scope: individual molecules

Use these answered entries as a reference point.
molecule: COc1cc(/C=C/C(=O)OCCCCCN(C)CCCOC(=O)c2cc(OC)c(OC)c(OC)c2)cc(OC)c1OC [GDE5]
LEDAall k ± 2SD (degradation rate): < 0.006 ln(M)/min

molecule: COc1cc(/C=C/C(=O)OCCCCCCN(C)CCCOC(=O)c2cc(OC)c(OC)c(OC)c2)cc(OC)c1OC [ELF96]
LEDAall k ± 2SD (degradation rate): < 0.006 ln(M)/min

molecule: COc1cc(/C=C/C(=O)OCCCN(C)CCCCCCOC(=O)c2cc(OC)c(OC)c(OC)c2)cc(OC)c1OC [ELF94]
LEDAall k ± 2SD (degradation rate): −0.023 ± 0.003 ln(M)/min

Below: the item to evaluate.
Query: Request the reported LEDAall k ± 2SD (degradation rate) associated with COc1cc(/C=C/C(=O)OCCCN(C)CCCCCOC(=O)c2cc(OC)c(OC)c(OC)c2)cc(OC)c1OC [FRA76]
Result: −0.019 ± 0.005 ln(M)/min

* * *

test: Chemical stability test in human plasma (enzymatic hydrolysis, HPLC-MS/MS); assay type: in vitro ADME; details: human plasma spiked with isomers mixture; LEDA195–221 matrix (Table S4)
assayReadout: LEDA195–221 k ± 2SD (degradation rate)

Use these answered entries as a reference point.
chemicalStructure: COc1cc(/C=C/C(=O)OCCCCCN(C)CCCOC(=O)c2cc(OC)c(OC)c(OC)c2)cc(OC)c1OC
LEDA195–221 k ± 2SD (degradation rate): < 0.006 ln(M)/min

chemicalStructure: COc1cc(/C=C/C(=O)OCCCN(C)CCCCCCOC(=O)c2cc(OC)c(OC)c(OC)c2)cc(OC)c1OC
LEDA195–221 k ± 2SD (degradation rate): −0.023 ± 0.005 ln(M)/min

chemicalStructure: COc1cc(/C=C/C(=O)OCCCN(C)CCCCCOC(=O)c2cc(OC)c(OC)c(OC)c2)cc(OC)c1OC
LEDA195–221 k ± 2SD (degradation rate): −0.019 ± 0.003 ln(M)/min

Below: the item to evaluate.
Query: Request the reported LEDA195–221 k ± 2SD (degradation rate) associated with COc1cc(/C=C/C(=O)OCCCCCCN(C)CCCOC(=O)c2cc(OC)c(OC)c(OC)c2)cc(OC)c1OC
Result: < 0.006 ln(M)/min

* * *

experiment: Chemical stability test in human plasma (enzymatic hydrolysis, HPLC-MS/MS); format: in vitro ADME; conditions: human, human plasma, human plasma spiked with the pure isomer, 1 μM, 37 °C, 0-120 min; conventional quantitative processing; read-out: Pure Isomer t1/2 ± 2SD
assayReadout: half-life at 1 µM (min)
Your answer is read as min, so omit the unit and give the number.

chemicalStructure: COc1cc(/C=C/C(=O)OCCCN(C)CCCCCOC(=O)c2cc(OC)c(OC)c(OC)c2)cc(OC)c1OC
unitsSymbol: min
half-life at 1 µM: 43

Below: the item to evaluate.
Query: Request the reported half-life at 1 µM associated with COc1cc(/C=C/C(=O)OCCCN(C)CCCCCCOC(=O)c2cc(OC)c(OC)c(OC)c2)cc(OC)c1OC
Result: 49
